Quick list: pIC50 per entry.
System: MDBK line
Assay overview: MTT Cell Proliferation Assay, MDBK cells
Format: cell-based, bovine
Test settings: Bos taurus, MDBK, second value of 'a/b (c)'; taken as MDBK cells; read-out: MTT Screen, second value of cell
Scale: pIC50 equals -log10([C]), with [C] in mol/L.

The following molecules have reported results that may help.
CCc1nnc(NS(=O)(=O)c2ccc(NC(=S)NC(=O)/C=C/c3ccc(OC)cc3)cc2)s1 :: 4.75
COc1ccc(/C=C/C(=O)NC(=S)Nc2ccc(S(=O)(=O)Nc3cc(C)on3)cc2)cc1 :: 4.32
Cc1ccc(NS(=O)(=O)c2ccc(NC(=S)NC(=O)CCc3ccccc3)cc2)cc1C :: 4.41

Request: I am curious: what pIC50 value has been reported for COc1cc(NS(=O)(=O)c2ccc(NC(=S)NC(=O)/C=C/c3ccco3)cc2)ncn1 ?
Response: 4.33

* * *

System under test: EGFR (Homo sapiens, UniProt P00533)
Construct: host or cells: A431
Sequence (P00533 25-1210): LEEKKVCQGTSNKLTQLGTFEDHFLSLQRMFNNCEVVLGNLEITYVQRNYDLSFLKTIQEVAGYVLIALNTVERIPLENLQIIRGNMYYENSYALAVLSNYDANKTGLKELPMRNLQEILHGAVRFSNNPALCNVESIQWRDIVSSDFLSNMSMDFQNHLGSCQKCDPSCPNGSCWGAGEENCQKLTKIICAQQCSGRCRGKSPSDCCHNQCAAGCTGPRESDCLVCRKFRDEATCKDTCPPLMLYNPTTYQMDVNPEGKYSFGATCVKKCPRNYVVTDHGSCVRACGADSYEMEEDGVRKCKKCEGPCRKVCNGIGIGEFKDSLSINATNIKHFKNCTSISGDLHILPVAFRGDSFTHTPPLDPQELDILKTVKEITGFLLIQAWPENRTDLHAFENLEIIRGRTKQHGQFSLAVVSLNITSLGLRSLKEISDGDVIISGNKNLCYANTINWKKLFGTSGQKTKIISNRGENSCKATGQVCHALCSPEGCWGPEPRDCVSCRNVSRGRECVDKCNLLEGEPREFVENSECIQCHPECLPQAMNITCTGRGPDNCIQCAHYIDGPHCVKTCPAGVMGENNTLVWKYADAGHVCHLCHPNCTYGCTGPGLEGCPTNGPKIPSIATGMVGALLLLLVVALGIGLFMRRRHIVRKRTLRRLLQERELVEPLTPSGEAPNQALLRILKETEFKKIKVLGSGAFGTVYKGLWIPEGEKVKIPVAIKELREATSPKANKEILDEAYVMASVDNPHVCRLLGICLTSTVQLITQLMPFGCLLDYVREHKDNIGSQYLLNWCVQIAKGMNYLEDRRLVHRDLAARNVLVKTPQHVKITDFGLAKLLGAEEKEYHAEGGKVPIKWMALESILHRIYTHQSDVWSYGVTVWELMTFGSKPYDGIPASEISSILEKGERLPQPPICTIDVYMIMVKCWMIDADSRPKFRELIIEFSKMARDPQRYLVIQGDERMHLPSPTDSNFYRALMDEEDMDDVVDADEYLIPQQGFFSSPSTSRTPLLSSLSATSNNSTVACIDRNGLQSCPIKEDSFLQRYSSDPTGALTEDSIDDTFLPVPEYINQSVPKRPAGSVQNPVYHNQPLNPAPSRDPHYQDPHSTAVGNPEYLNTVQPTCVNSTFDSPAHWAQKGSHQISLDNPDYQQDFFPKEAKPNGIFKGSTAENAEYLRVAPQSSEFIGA
Assay overview: EGFR in-cell Western (ICW) screening protocol (EGFR inhibition assay)
Assay type: cell-based
Parameters: unit not given here
Test settings: ICW assay, run 2
Counter-ions that a name gives are not always drawn.
Property: ICW 2
Output spec: single numeric token, no unit.

COc1cccc2c(C)nc(Nc3nc(C(F)(F)F)cc(=O)[nH]3)nc12 [compound 11758] :: 41.93
CCc1c(C)[nH]c(Nc2nc(C)c3cc(C)c(C)cc3n2)nc1=O [11809 + TFA] :: 34.02
Cc1ccc2nc(Nc3nc4c(c(-c5ccccc5)n3)CCCC4)nc(C)c2c1 [compound 12227] :: 23.08

Request: Give the measured ICW 2 of CCc1ccc2nc(Nc3nc(C)c(CCC(C)C)c(=O)[nH]3)nc(C)c2c1 [compound 11462] .
Response: 77.49

* * *

Tested on: MDBK line
Assay overview: MTT Cell Proliferation Assay, MDBK cells
Assay type: cell-based, bovine
Test settings: Bos taurus, MDBK, second value of 'a/b (c)'; taken as MDBK cells; read-out: MTT Screen, second value of cell
Property: IC50 (µM)
Write the value in µM as a bare number.

Solved entries:
CC(C)NS(=O)(=O)c1ccc(NC(=S)NC(=O)CCCCCOc2ccc(Cl)cc2Cl)cc1 :: 5.19
CC(C)C(=O)NC(=S)Nc1ccc(S(=O)(=O)NCCc2ccccc2)cc1 :: 20

Request: Field request: IC50 | item: Cc1ccccc1OCC(=O)NC(=S)Nc1ccc(S(=O)(=O)NC2CCCCC2)cc1
Response: 32.3

Request: What value of measured IC50 is listed for O=C(NC(=S)Nc1ccc(S(=O)(=O)NCCc2ccccc2)cc1)C1CCCC1 ?
Response: 6.34

Request: Please look up its IC50: CC(C)CC(=O)NC(=S)Nc1ccc(S(=O)(=O)NC2CCCCC2)cc1
Response: 14.3

Request: Looking for the measured IC50 of Cc1ccc(NS(=O)(=O)c2ccc(NC(=S)NC(=O)C(C)(C)C)cc2)c(C)c1 , can you help?
Response: 6.29

Request: Consider the molecule shown here: Cc1ccc(NS(=O)(=O)c2ccc(NC(=S)NC(=O)CC(C)C)cc2)cc1C What is its recorded IC50?
Response: 6.34

Request: Any idea what IC50 was measured for CN(c1ccccc1)S(=O)(=O)c1ccc(NC(=S)NC(=O)/C=C/c2ccc(F)cc2)cc1 ?
Response: 17.7

Request: Fill blank: measured IC50 of the molecule O=C(NC(=S)Nc1ccc(S(=O)(=O)N2CCCCCC2)cc1)C1CCC1 is ____.
Response: 37.6

* * *

System: epithelial carcinoma A431 cell line
Assay overview: MTT Cell Proliferation Assay, A431 cells
Assay type: cell-based
Test settings: Homo sapiens, A-431, A431 cells, first value of cell; read-out: MTT Assay IC50(A431/MDBK): A431
Structures can show the parent of a compound that is named as a salt.
IC50 values, listed per item
// note: answer is a bare numeric in µM

Some compounds with known IC50 results, for comparison:
O=c1[nH]c(Nc2nc(-c3ccccc3)c3cc(Cl)ccc3n2)nc2ccccc12 [11706 + TFA] :: 17.6
CCCc1cc(=O)[nH]c(Nc2nc(C)c3ccc(C)cc3n2)n1 :: 10.7
CCc1ccc2nc(Nc3nc(=O)cc(CSc4nc5ccccc5s4)[nH]3)nc(C)c2c1 [11300 + TFA] :: 26.3
COc1ccc2nc(Nc3nc(C)c(CCC(C)C)c(=O)[nH]3)nc(C)c2c1 :: 5.84
Cc1cc2nc(Nc3ncc4c(n3)CC(c3cccs3)CC4=O)nc(C)c2cc1C (centres unmarked) [11681 + TFA] :: 5.47

Request: Which IC50 reading was recorded for the compound C=CCc1c(C)nc(Nc2nc(C)c3cccc(OCC)c3n2)[nH]c1=O ?
Response: 14.7

Request: Quick check: IC50 of Cc1ccc2c(C)nc(Nc3nc(CSc4nnc(C)s4)cc(=O)[nH]3)nc2c1 ?
Response: 10.1

Request: Which IC50 value is on record for Cc1ccc2c(O)nc(Nc3nc(C)cc(-c4ccccc4)n3)nc2c1 [12693 + TFA] ?
Response: 9.01

* * *

System under test: EGFR (Homo sapiens)
Construct: host or cells: A431
Assay overview: EGFR in-cell Western (ICW) screening protocol (EGFR inhibition assay)
Type: cell-based
Test settings: Table 10; % Inhibition of EGF dependent EGFR phosphorylation in A431 cells; compound 125 μM in assay
Classification field: TRUE = ICW assay at or over 60; FALSE = ICW assay under 60.

Record excerpt, results attached:
COc1ccc(NC(=S)Nc2ccc(S(=O)(=O)Nc3c(C)cc(C)cc3C)cc2)cc1OC :: FALSE
COc1ccc(NS(=O)(=O)c2ccc(NC(=S)Nc3ccccc3C(F)(F)F)cc2)cc1 :: FALSE
COc1ccc(NC(=S)Nc2ccc(S(=O)(=O)Nc3ccccc3C)cc2)c(OC)c1 :: FALSE
Cc1ccc(NC(=S)Nc2ccc(S(=O)(=O)Nc3ccc(Cl)cc3)cc2)cc1Cl :: TRUE
CC1CCc2cc(F)ccc2N1S(=O)(=O)c1ccc(NC(=S)Nc2ccc(Cl)c(Cl)c2)cc1 (centres unmarked) :: FALSE
Cc1cc(C)c(NS(=O)(=O)c2ccc(NC(=S)Nc3ccccc3F)cc2)c(C)c1 :: FALSE

Request: Does O=S(=O)(Nc1ccccc1)c1ccc(NC(=S)Nc2cccc(Cl)c2)cc1 have a reported ICW assay of at least 60?
Response: TRUE

Request: Could you tell me if the measured ICW assay of Cc1ccccc1NS(=O)(=O)c1ccc(NC(=S)Nc2cccc(C(F)(F)F)c2)cc1 reaches 60 or more?
Response: TRUE

* * *

Test system: MDBK line
Assay overview: MTT Cell Proliferation Assay, MDBK cells
Assay type: cell-based, bovine
Test settings: Bos taurus, MDBK, MDBK cells, normalized; read-out: MTT Assay IC50 (normalized): MDBK
Property: IC50 (µM)
Please state the figure in µM; there is no need to write the unit.

Request: Value lookup for IC50; key = Cc1ccc2nc(Nc3nc(=O)cc(-c4ccccc4)[nH]3)nc(C)c2c1
Response: 2.61

* * *

System under test: EGFR (Homo sapiens)
Construct: host or cells: A431
Assay overview: EGFR in-cell Western (ICW) screening protocol (EGFR inhibition assay)
Type: cell-based
Set-up: unit not given here
Test settings: ICW assay, average of runs 1 and 2
Structures can show the parent of a compound that is named as a salt.
// map ICW Avg to label using low interval: < 30; middle interval: ≥ 30 and < 40; high interval: ≥ 40

Request: Entry COCc1cc(=O)nc(Nc2nc(C)c3cc(C)cc(C)c3n2)[nH]1 [12644 + TFA] belongs to which category?
Response: low interval

Request: Kindly identify the class of COc1ccc2nc(Nc3nc(C)c(CCC(C)C)c(=O)[nH]3)nc(C)c2c1 .
Response: middle interval

Request: Form: Item = Cc1nc(Nc2nc3c(c(-c4ccccc4)n2)CCCC3)nc2c(C)cccc12 [12229 + TFA] ; Class = ?
Response: low interval

Request: Which ICW Avg category applies to CCCc1c[nH]c(Nc2nc(C)c3ccccc3n2)nc1=O [compound 12622] here?
Response: low interval

Request: For the record COc1ccc(-c2cc(=O)[nH]c(Nc3nc(C)c4ccc(C)cc4n3)n2)cc1OC [11800 + TFA] , report the class its ICW Avg corresponds to.
Response: middle interval

Request: Classify this compound: CCOC(=O)c1c(N)nc(Nc2nc(C)c3cc(OC)ccc3n2)nc1-c1ccccc1
Response: high interval

Request: Bin this entry: COc1ccc2nc(Nc3nc(CSc4nnnn4-c4ccccc4)cc(=O)[nH]3)nc(C)c2c1
Response: high interval

Request: Band assignment needed for Cc1nc(Nc2nc(=O)cc(-c3ccccc3)[nH]2)nc2c(C)cccc12 please.
Response: low interval

Request: Exam item: assign Cc1cc(C)c2nc(Nc3nc(C)cc(=O)[nH]3)nc(C)c2c1 [11607 + TFA] to the correct category.
Response: high interval
